Origin of measurements: patent US7084111

Biological target: mouse melanocortin-3 receptor (mouse, UniProt P33033 1-323)
Sequence (P33033 whole entry): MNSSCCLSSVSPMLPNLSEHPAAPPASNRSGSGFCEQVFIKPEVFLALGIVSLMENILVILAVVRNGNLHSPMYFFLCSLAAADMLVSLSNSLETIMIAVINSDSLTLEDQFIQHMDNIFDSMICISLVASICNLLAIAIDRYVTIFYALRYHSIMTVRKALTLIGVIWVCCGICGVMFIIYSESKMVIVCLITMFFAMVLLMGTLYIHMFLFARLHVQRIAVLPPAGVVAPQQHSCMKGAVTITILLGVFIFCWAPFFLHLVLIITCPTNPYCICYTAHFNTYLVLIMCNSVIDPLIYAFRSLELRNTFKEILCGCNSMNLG
Assay: cell-based or functional assay
Bridges are numbered along the chain shown (N, C = ends). [ ]: non-standard residue; d: D form. Nle = CCCC[C@H](N)C(=O)O
Reported endpoint: EC50 (agonist)

Study these solved cases before continuing.
# Binder, EC50 (agonist)
records = [
    ("YDHXRANAFXY (Asp-Dpr side chain lactam bridge; Dpr; DPhe; C-terminal amide (amide resin)) [SEQ ID NO:27 (Tyr-c[Asp-His-DPhe-Arg-Ala-Asn-Ala-Phe-Dpr]-Tyr)]", "13.5 µM"),
    ("Ac-SYS[Nle]EHRF[dF]GKPV-NH2 (SMILES CCCC[C@H](NC(=O)[C@H](CO)NC(=O)[C@H](Cc1ccc(O)cc1)NC(=O)[C@H](CO)NC(C)=O)C(=O)N[C@@H](CCC(=O)O)C(=O)N[C@@H](Cc1c[nH]cn1)C(=O)N[C@@H](CCCNC(=N)N)C(=O)N[C@@H](Cc1ccccc1)C(=O)N[C@H](Cc1ccccc1)C(=O)NCC(=O)N[C@@H](CCCCN)C(=O)N1CCC[C@H]1C(=O)N[C@H](C(N)=O)C(C)C) [SEQ ID NO:18 (Ac-Ser-Tyr-Ser-Nle-Glu-His-Arg-Phe-DPhe-Gly-Lys-Pro-Val)]", "> 100 µM"),
]

Request: Given the entry Ac-[Nle]DHRFFK-NH2 (lactam 2-7; SMILES CCCC[C@H](NC(C)=O)C(=O)N[C@H]1CC(=O)NCCCC[C@@H](C(N)=O)NC(=O)[C@H](Cc2ccccc2)NC(=O)[C@H](Cc2ccccc2)NC(=O)[C@H](CCCNC(=N)N)NC(=O)[C@H](Cc2c[nH]cn2)NC1=O) [SEQ ID NO:20 (Ac-Nle-c[Asp-His-Arg-Phe-Phe-Lys])] , report its measured EC50 (agonist).
Response: > 100 µM
